- system_under_test: T1, human leukocyte elastase (hLE) (human), P08246
- T1 chain: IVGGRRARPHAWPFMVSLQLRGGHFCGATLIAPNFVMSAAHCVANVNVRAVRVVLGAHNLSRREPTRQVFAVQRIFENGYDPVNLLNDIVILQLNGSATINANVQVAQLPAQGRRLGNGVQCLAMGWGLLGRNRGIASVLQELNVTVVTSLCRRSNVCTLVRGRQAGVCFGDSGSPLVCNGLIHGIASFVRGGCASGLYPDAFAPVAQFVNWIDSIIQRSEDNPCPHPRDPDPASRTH
- conditions: modification not given
pKi: −log10 of the molar value.
experimental_endpoint: pKi

[[record]]
binder = "EILIFWSKDI [CRP62-71 (peptide 14)]"
val = 5.17

